Assay: soluble on expression in E. coli; label from the status in PepcDB or PDB records

# residue.string, soluble on expression in E. coli
rows = [
    ("MNVVILDTGCANLNSVKSAIARHGYEPKVSRDPDVVLLADKLFLPGVGTAQAAMDQVRERELFDLIKACTQPVLGICLGMQLLGRRSEESNGVDLLGIIDEDVPKMTDFGLPLPHMGWNRVYPQAGNRLFQGIEDGAYFYFVHSYAMPVNPWTIAQCNYGEPFTAAVQKDNFYGVQFHPERSGAAGAKLLKNFLEM", "soluble"),
    ("MSLGAIVEVITIKNYSLKSENYEAEIDIPKIRGLKDKNLEQRLNSSFMEDGKRLYHQFQERMEKIQSSKNKGYKSLSLSYSVKNNSKKFLSIEMTKNEIEASSYVSKVHYTIDKKRQIVLTLPMLFKDDKYIKVISDNIKEQMREQMKKDSTKSYFIDQKKDLPVEDFKTINKYQDFYFNKNEDLVICFDEYEVAPGYMGAVEFVIPYKVIKDEGHHHHHH", "soluble"),
]

====

Assay: soluble on expression in E. coli; label from the status in PepcDB or PDB records

# residue.string, soluble on expression in E. coli
rows = [
    ("MTDFFRFPNTPHLLWLGQGQPRDDKILSDAEIAALLQDEVLIEEKLDGANLGISLDEHGELRAQNRGQYLPQPFSGQFSRLNSWLGQHGEILKHTLTPEMILFGEWCAARHSLDYNKLPDWFLLFDVYDREAGKFWSVERRNQLAQKLNITTVPLLKRTKITCNQLVQLLDDAQSRYRSGKVEGIVIRCDSPLWCESRAKLVNREFVQAIEDHWRSRSIEWNLVHAGSVKRS", "not soluble"),
    ("MRSISVGLDREESGSDGLCLGLVVLATLAAGFVAGSDVLRCWGFGPATGDVCLWVEAGFWRCPLPGGGADGQGPGFWDAALREARMFCRSCVGLRMIGWRR", "not soluble"),
    ("MGSDKIHHHHHHMVNKNLYTLLVCLLLAGCDLIDYHPYDVRISGETDVNAHNIEQIEAKCKGKTTIRFITMGDSQRWYDETEDFVKEVNKRDDIDFVIHGGDMSDFGLTKEFLWQRDIMNGLKVPYVVLIGNHDCLGTGAETYQAVFGPTNFSFIAGNVKFVCLNTNALEYDYSEPIPNFGFMEQELTDRADEFEKTVVSMHAHPFADVFNDNVAKPFQYYITQYPGLQFCTAAHNHGFDDRILFDDDVHYIVSDCMKSRSYLVFTITPEKYEYELVEY", "not soluble"),
    ("MSNSVTNFEMSSVLPGKKPCQGKNNESQVVQTTPIKKHSVTFKNQSSLGVIDHYARLTNKSHSSVIAEVVDLAIPILEKCNRHNWSINEIKNDLLKFSIKESINRSRGKTEVTLEEYCSLIWKTNIMSPLKIPIADYFQLNANDEFMGKDEKTVIRERLSSLRENYDMEKAIYIYNQRHFDVKHQSVSGYSNIILIHRTTFEGYYFDAGQALLLSTSQLIIFGINEVLRRKGIVMPYPVVCWIDIYHVNEMVVMLPVLRKTDVSNRVNVPDDIIINPYSQESRT", "soluble"),
    ("MSLAAELLIATGEYAPWTGEQLPDGGYVNRVVREAFAREGVQVRFAYMPWARALEALRNGNAQASSFWYDDPVKAKEFLYSAPISEHRELLFHRKDVTVPPWRKLRDLRGLRFGATHGYTYTAEFRQLMKQGALNVEEANDDKINLLKMLAGRIELFPLDEFTGWQLLTSDAFPRGAHDLVTTEARPFSIQYGHLLMPRSARNEQLMARFNAGLARLRADGTLERFRLDLYRGSGMGEGHHHHHH", "soluble"),
    ("MGSDKIHHHHHHMEKTVQLEHMNTRVFVEGAYDTALIPLGSCESHGDHLPFAMDALTAHKLALGVAERMEKVFVLPPTFFGFSQHYWHKPMSISLSQDTNIRVIADILDSLAHWKIRNVLIINGHDGNISAIDVAARAARLRHPDMKIGSLDAWWVTAGNLLPKDTFEVWNGLGHGGEGETSIGLACFPELVDMAHARGMIPEVDENVKELWDFSELTDYGATGAPEKATREKGQAMYDVLVDYLVAYLTKRRDTNWAYNPK", "not soluble"),
    ("MTDTHAHLDFLEPEELAEAAAHLPKLRAVLTLGVDPGRWEKTLSLAQGNVYAAVGLHPTSAHLLSPRWRRPFRHYARSERVRAIGETGLDYYWTPETRAVQLKALDFQAALAEALGLPLVLHVRSKDGKAEEDLAAWLLLHRPKRAVLHAFSGHPALEAAGLEVGAYFSFAGPLTYRKNAALREAAARLPEDRLLVETDTPFLPPEPFRGKRNRPHYVRFTLEKLAEARGLPFAEAEALTDRNARVCFGWP", "soluble"),
    ("MGSDKIHHHHHHMAYRDQSLGELAIAIPRATKLFRELNLDFCCGGKQTLSRAAGKKDLNIDELEAQLEKLAAQPSDARDWREAPLADIIAYIIPRFHDRHREQLPELILMAKKVERVHHDKADCPHGLANQLTAIYNELSQHMMKEERILFPMIGQGMGANAAAPISVMEHEHDDAGRDVEVVKELTNGVVPPEGACNTWRALYSGINEFITDLMEHIHLENNLLFPRALRGE", "not soluble"),
    ("MGSDKIHHHHHHMSIPSTLLGLSGGQFNEIDWSNCAIVMIDFQNEYVDGAMPLGDAGNKATANARLLLYKARNKNIPIFHVAHHGQDNDKIFNPLSSKVDIIDSLQPLDDEKTIIKMHPNAFYDTELQALITSAGKQQIIFAGFMSHMCVSSSVRAAFDLGFESFVCHDACATRDLPSVAGQVITASTVHDSAMAALQDRFAALVATDKLTNS", "not soluble"),
    ("SRQHTSISDYDVMILDLTDVPMLDVTVGLALENAIKDALDARCEVYLLCPNQRTREQLEKFHVIDLVPDNNMYQFRYEALNAAVAHVESDQYQRMTA", "not soluble"),
    ("MGSDKIHHHHHHMNIEDTLLKQDVWRFIDNTTINPAFDAIQSFATDDTLCRSVGARMAPSTVRGWVHEKTVSLGIQDSKLPDIDKGIAFLQEQGYRVVVRNSGGLAVVLDSGVLNLSMVLPDAERGIAIERGYETMFTLIKDMFVDCNEVIEAKEIEDSYCPGSYDLSIQGEKFAGISQRRMAKGVAVQIYLAIDGDQTTRSELIRDFYTISGKAKQTKYTFPDVNPNVMGSLSDLMKNDISLNGTLVRLFNSLRHYAGELVSGTLTSEELDLFPAYYERLIARNDKVLT", "not soluble"),
    ("MLSLATFFITMTTHRKPSQEQGFLNGQFLLAMPGMSDERFARSVVYICAHSDEGAMGFIINQLQPVQFPDLLRQIGVIGEEDLIILPDRAQHMVVRNGGPVDRTRGFVLHSDDYMVDSTMPVSDDVCLTATVDILRAIYGGGGPERALMALGYSGWAPGQLEMEVAENGWLTCDAPLDMLFDSDIEGKYSRLMLHMGIDMSRLVSDAGHAAADPLEHHHHHH", "not soluble"),
]

====

Experiment: soluble on expression in E. coli; label from the status in PepcDB or PDB records

# residue.string, soluble on expression in E. coli
measured = [
    ("SDSSAVITQISKEEARGPLRGKGDQKSAASQKPRSRGILHSLFCCVCRDDGEALPAHSGAPLLVEENGAIPKQTPVQYLLPEAKAQDSDKICVVIDLDETLVHSSFKPVNNADFIIPVEIDGVVHQVYVLKRPHVDEFLQRMGELFECVLFTASLAKYADPVADLLDKWGAFRARLFRESCVFHRGNYVKDLSRLGRDLRRVLILDNSPASYVFHPDNAVPVASWFDNMSDTELHDLLPFFEQLSRVDDVYSVLRQPRPGS", "soluble"),
    ("MKSTDNSKPVPFFRGKLKFFQPKEHKISVDLVLFLSKIKPPKRNYRIIDLGAGFGFLSITLAKKYGVKVVAFEYDERMVKLLRKNVKLNGVEHLVEVVEGDIKEIEKHLSRGSFNLVVSNPPFYPINYSPNPEPYHFEVYATLKDFVRASSYLLKDGGELYLLSPCFRLYELTEYLSNFNLPLRKLSLIYPTPLKRARLAITVSVKNVKGQLECDKPLIINKENGEYTEEVKQLLENFL", "soluble"),
]

====

Assay: soluble on expression in E. coli; label from the status in PepcDB or PDB records

# residue.string, soluble on expression in E. coli
data = [
    ("MNKQRLITELQSKGLRLVDPNAKDLGRKGGAGPSDHRAVTVDGTTVMVPIYTSTAAASPYSINLASMPPKTVLSKGDEEIAAIALPRQPKFYDLKTADGIPYSHIALLHSNNVLATTVQQTCIRYRDESTVCQFCAIEKSLDAGRTITRKLPEQLAEVTEAAVRLDGIEQVIMTTGTPNSGDRGAAYLTKCAAAIKARVNIPIQAQCEPPDDFIWFERMKAAGVDSLGMHLEAVDPDVRAKIMPGKAEVPVSYYYEAYEAAVKVFGWGQVSTYLLAGLGDSFETLVEASEKLVNMGVYPFVVPFVPISETPLANHPAPDSDFMFALYQRVGTIIKQSQISSVDMKAGCAKCGACSALSTFAKLEHHHHHH", "not soluble"),
    ("MMIVGCYCMNKLVFCLMGPTASGKTGLACELLTHFPFEIISVDSAMIYRDMNIGTAKPSIHELQRAPHYLIDIKDPVESYSAAQFCTDALSLCAEIIKRGNIPLLVGGTMMYFNALQKGLATLPEADEAVRKRLEEEALSQGWDFLYQKLSQLDPVTAARIHAHDTQRIQRALEVYYLTGSTLSTYLTGPHERPDYYFVNLALFPEQRSWLHERIAQRFDAMLSEGFIEEVQQLQAKWPIQINLPSMRCVGYRQILQHLAGHYDYETMREKGIAATRQLAKRQLTWLRHWEGALFYDSQNVGFNTDIIAKIREILDNTVSNLEHHHHHH", "not soluble"),
    ("MGSDKIHHHHHHMHHDLVDVLIIEDESELARLHAELVQKHPRLRLAGMAASLAQARQLLHATPPQLVLLDNYLPDGKGVTLMTDPALATSQCSVIFITAASDMETCSQAIRNGAFDYILKPVSWKRLSQSLERFIQFYDQQREWKIVDQQNVDSLYQLQAKNYRVDSGSKGIEEKTLALVQGLFSDREAHCFSVDEVVSAAGLSKTTARRYLEHGVETGFLEVEMLYGKIGHPRRLYRRAKVKS", "not soluble"),
    ("MEHRYRTNLKKVFLSDSELNQLNINIDQSGCKSFSEYARRTLLDPGMNFITIDTNGYQDLVFELKRIGNNINQIARSVNQSQLISGEELQELKKGIGELIKEVDKEFNLQAQKLKEFHGHH", "not soluble"),
    ("MAHHHHHHMSELKIGFLGCGSMGECIMAGLLKAKALGPENTFICNRSASTNERLVSLYQVKSVSAVELAEKSDIIMLGVKPYGIVPVLETIKEKITPSKLVVSMAAGVPIATIENHCPPKTKVVRVMPNIPSYVGEGVTSISGNSAVTPDDEAVVMKLFSAIGKSYLVAESAIHGVVGVAGSSPAYVFMFMEALSDGAVRGGIPRAQSYEMAAQAVLGAAKMLQDSGKTPSALKDMVCSPGGTTIEAVRFLEKGGMRSSIIEAMIQCMEKSKEFERMYSE", "soluble"),
    ("QVRQSPQSLTVWEGETTILNCSYENSAFDYFPWYQQFPGEGPALLIAIRSVSDKKEDGRFTIFFNKREKKLSLHITDSQPGDSATYFCAATGANTGKLTFGHGTILRVHPNIQNPDPAVYQLRDSKSSDKSVCLFTDFDSQTNVSQSKDSDVYITDATVLDMRSMDFKSNSAVAWSNKSDFACANAFNNSIIPEDTFFPS", "soluble"),
]

Data provenance: the DeepSol protein solubility set
